These measurements were taken from a collection of fitness landscapes (doi:10.1126/science.1257360).

B1: PhoQ; a variant is named by its letters at X, in order, P23837 (parent)
chain: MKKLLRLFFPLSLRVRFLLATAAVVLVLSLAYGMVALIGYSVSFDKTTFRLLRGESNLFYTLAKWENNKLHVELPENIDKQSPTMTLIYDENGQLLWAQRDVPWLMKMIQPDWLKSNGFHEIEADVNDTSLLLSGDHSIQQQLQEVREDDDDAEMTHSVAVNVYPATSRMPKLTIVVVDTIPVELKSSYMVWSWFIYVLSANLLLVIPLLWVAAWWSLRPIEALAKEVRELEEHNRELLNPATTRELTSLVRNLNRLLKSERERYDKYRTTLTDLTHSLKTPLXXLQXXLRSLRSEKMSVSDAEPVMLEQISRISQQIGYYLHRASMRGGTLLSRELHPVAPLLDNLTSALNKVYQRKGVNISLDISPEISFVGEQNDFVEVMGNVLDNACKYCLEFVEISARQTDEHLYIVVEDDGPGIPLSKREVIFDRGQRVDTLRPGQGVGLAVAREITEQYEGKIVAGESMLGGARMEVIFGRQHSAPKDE

- Variants of: B1
- protocolDetails: enrichment ratio after two sorts for PhoP signalling (ratio (wild type AVST 3.29)); higher = more functional
- experimentalSetup: with PhoP (E. coli)
Over roughly 140,000 sequences, “enrichment ratio after two sorts for PhoP signalling” has its median near 0; the highest 2% begin near 11. The entries come from a sample that favours the highest values as a whole.
experimentalEndpoint: enrichment ratio

The reported enrichment ratio of the variant `GIFC` was ≤ 0.25

The reported enrichment ratio of the variant `YTPA` was ≤ 0.25

The reported enrichment ratio of the variant `RCMC` was ≤ 0.25
